System Tested: human P2X2/3 receptor (Homo sapiens (Human), UniProt P56373+Q9UBL9)
Sequence (Q9UBL9 whole entry): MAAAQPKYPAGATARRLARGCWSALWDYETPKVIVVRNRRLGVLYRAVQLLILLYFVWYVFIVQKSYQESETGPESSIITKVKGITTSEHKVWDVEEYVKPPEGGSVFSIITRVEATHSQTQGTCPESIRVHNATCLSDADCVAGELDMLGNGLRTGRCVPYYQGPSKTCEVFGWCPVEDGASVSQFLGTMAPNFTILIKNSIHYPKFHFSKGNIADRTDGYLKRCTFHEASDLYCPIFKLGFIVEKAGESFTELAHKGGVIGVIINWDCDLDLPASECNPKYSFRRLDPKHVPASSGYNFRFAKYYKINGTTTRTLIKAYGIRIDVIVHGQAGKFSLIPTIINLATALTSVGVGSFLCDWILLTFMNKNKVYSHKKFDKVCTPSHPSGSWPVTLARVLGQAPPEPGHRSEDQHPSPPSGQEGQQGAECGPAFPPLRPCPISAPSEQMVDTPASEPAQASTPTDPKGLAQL
Sequence (P56373 whole entry): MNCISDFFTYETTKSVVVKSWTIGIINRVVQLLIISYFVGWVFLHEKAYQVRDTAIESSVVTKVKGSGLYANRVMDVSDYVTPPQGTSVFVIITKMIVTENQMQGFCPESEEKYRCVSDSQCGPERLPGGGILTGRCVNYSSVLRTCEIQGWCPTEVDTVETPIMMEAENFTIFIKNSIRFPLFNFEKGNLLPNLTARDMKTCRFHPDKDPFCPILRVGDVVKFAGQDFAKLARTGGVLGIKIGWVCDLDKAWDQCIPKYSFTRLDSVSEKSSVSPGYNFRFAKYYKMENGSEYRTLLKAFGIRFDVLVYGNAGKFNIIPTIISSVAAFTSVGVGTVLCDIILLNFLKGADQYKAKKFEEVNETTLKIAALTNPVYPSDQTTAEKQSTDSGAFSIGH
Procedure Details: Inhibitory activity on human P2X2/3 receptor (calcium 6 dye FLIPR assay, agonist α,β-MeATP)
Test Context: HEK293-P2X2/3 stably expressing cell line, FLIPR Tetra
Experimental: Biological Assay: Determination of the Inhibitory Activity of the Compounds on Human P2X3 and P2X2/3 Receptors Cells were seeded into a poly-D-lysine-coated 384-well cell culture plate (Corning) at a density of 11,000 cells/well/25 μL of cell inoculation medium, and were cultured in a cell incubator overnight. […]
Record form. Attribute: log10 IC50. Fill in for each entry.
Reminder: these figures are log10 of reported IC50, in nM before transformation.

>>> numeric_value("C=C(C)c1cnc(OC)cc1Oc1cnc(N)nc1N [Compound C164]")
1.85

Go through the items and report each one's log10 IC50.
1. CC(C)c1cnc(NC2CC2)cc1Oc1cnc(N)nc1N [Compound C119]
2. C#Cc1cc(Oc2cnc(N)nc2NCC(O)CO)c(C(C)C)cn1 (stereo not shown) [Compound C216]
3. CCNc1nc(N)ncc1Oc1cc(Br)ncc1C(C)C [Compound C173]

1. 2.70
2. 1.81
3. 2.41

Go through the items and report each one's log10 IC50.
1. CC(C)c1cnc(CN)cc1Oc1cnc(N)nc1N [Compound C157]
2. CC(C)c1cnc(Br)cc1Oc1cnc(N)nc1NC1CCCCC1 [Compound C180]
3. CC(C)c1cnc(N)cc1Oc1cnc(N)nc1N [Compound C21]

1: 2.99; 2: 2.34; 3: 2.30
